Test: chemical genetic growth profiling, strain panel (AID 1159580);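 note: tested at 20 µM; growth read once vehicle control cultures reached saturation at 30 °C; 1 = growth at the plate median or of vehicle wells; lower values mean less growth of the strain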
Conditions: S. cerevisiae deletion strains, growth OD, locus YOL006C, strain TOP1, active compounds read low
The whole screen tested about 5,500 compounds, of which about 2,000 (36%) were called active. Roughly 18% stayed inconclusive and do not appear here. The list shows a part of the results.
METRIC: normalized growth
I only need the number, thanks.

QUERY: normalized growth for `CCCCC1(COC(=O)CCC(=O)O)C(=O)N(c2ccccc2)N(c2ccccc2)C1=O` ?
RESULT: 0.991

QUERY: normalized growth for `NCCCC[C@H](N[C@@H](CCc1ccccc1)C(=O)O)C(=O)N1CCC[C@H]1C(=O)O` ?
RESULT: 0.922

QUERY: normalized growth for O=C1OC2COC(=O)C2C=C1NC(=O)c1ccc(Cl)cc1 (configuration not stated) ?
RESULT: 0.72

QUERY: normalized growth for `C[C@H](N)[C@H](O)c1ccc(O)c(O)c1` ?
RESULT: 0.878

QUERY: normalized growth for `CCCc1cc(Br)c(-n2cccc2)c(Br)c1` ?
RESULT: 1.04

QUERY: normalized growth for `Cc1ccc2cc3c(ccc4ccccc43)c3c2c1CC3` ?
RESULT: 0.937

QUERY: normalized growth for `Clc1cc(Cl)cc(-n2cccc2)c1` ?
RESULT: 0.977

QUERY: normalized growth for CSCCC(NC=O)C(=O)NC(C)C(=O)O (configuration not stated) ?
RESULT: 1.05

QUERY: normalized growth for `Nc1ncn([C@@H]2O[C@H](CO)[C@@H](O)[C@H]2O)c(=O)n1` ?
RESULT: 1.07

QUERY: normalized growth for `COC(C)(C)CCC[C@H](C)C/C=C/C(C)=C/C(=O)OC(C)C` ?
RESULT: 1.07

QUERY: normalized growth for `O=C(O)c1cccnc1Nc1cccc(C(F)(F)F)c1` ?
RESULT: 0.99

QUERY: normalized growth for `COc1ccc(NS(=O)(=O)c2c(C)noc2C)cc1` ?
RESULT: 1.03

QUERY: normalized growth for `O=C(Nc1ccc(C(F)(F)F)cc1)Nc1ccccc1C(=O)O` ?
RESULT: 0.939

QUERY: normalized growth for `Clc1cc(Cl)c(Cl)c(-n2cccc2)c1Cl` ?
RESULT: 0.395

QUERY: normalized growth for `CCOP(=S)(OCC)SCn1c(=O)oc2cc(Cl)ccc21` ?
RESULT: 0.981

QUERY: normalized growth for CC1(C)CC2C1(O)CCC1(C)C=CC(O)C21CO (configuration not stated) ?
RESULT: 1.03

QUERY: normalized growth for CCCC(C)C1(CC)C(=O)NC(=O)NC1=O (configuration not stated) ?
RESULT: 1.07

---

Test: chemical genetic growth profiling, strain panel (AID 1159580);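 note: tested at 20 µM; growth read once vehicle control cultures reached saturation at 30 °C; 1 = growth at the plate median or of vehicle wells; lower values mean less growth of the strain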
Conditions: S. cerevisiae deletion strains, growth OD, locus YOR136W, strain idh2, active compounds read low
Out of some 5,500 compounds screened, about 2,000 (36%) were called active. Not shown: some 18% with an inconclusive outcome. The list shows a part of the results.
Hi there, I'd appreciate the recorded normalized growth for every entry that follows.
I only need the number, thanks.

QUERY: normalized growth for C=CCC1(C(C)CCC)C(=O)N=C(S)NC1=O (stereo unspecified) ?
RESULT: 0.993

QUERY: normalized growth for `O=C(O)c1cccnc1Nc1cccc(C(F)(F)F)c1` ?
RESULT: 0.98

QUERY: normalized growth for `Nc1ccc(S(=O)(=O)Nc2ccc(Cl)nn2)cc1` ?
RESULT: 0.995

QUERY: normalized growth for `C1CNCCN1` ?
RESULT: 0.99

QUERY: normalized growth for CCCC(C)C1(CC)C(=O)NC(=O)NC1=O (stereo unspecified) ?
RESULT: 1.02

QUERY: normalized growth for `C=C(CC)C(=O)c1ccc(OCC(=O)O)c(Cl)c1Cl` ?
RESULT: 0.979

QUERY: normalized growth for CC1(C)C(=O)C=CC2(C)C3CCC4(C)C(c5ccoc5)CC5OC54C3C(O)CC12 (stereo unspecified) ?
RESULT: 1.02

QUERY: normalized growth for `CC(=O)Nc1ccc(S(=O)(=O)Nc2ccc([N+](=O)[O-])cc2)cc1` ?
RESULT: 0.998

QUERY: normalized growth for CC(=O)OC1CC(OC(C)=O)C2(C)C(CC(OC(C)=O)C3(C)C2CCC2(C)C(c4ccoc4)CC4OC423)C1(C)C (stereo unspecified) ?
RESULT: 1

QUERY: normalized growth for `CC(=O)NCCCCCC(=O)O` ?
RESULT: 0.985

QUERY: normalized growth for CO[C@H]1/C=C/O[C@@]2(C)Oc3c(C)c(O)c4c(O)c(c(/C=N/N5CCN(C)CC5)c(O)c4c3C2=O)NC(=O)/C(C)=C\C=C\C(C)[C@H](O)[C@@H](C)[C@@H](O)[C@@H](C)[C@@H](OC(C)=O)[C@@H]1C (stereo partly specified) ?
RESULT: 1.02

QUERY: normalized growth for `O=C(O)/C=C/C=C/c1ccccc1` ?
RESULT: 0.938

QUERY: normalized growth for `O=C(CCCCCCCCCCCCC1CCCC1)Nc1ccc(S(=O)(=O)c2ccc(NC(=O)CCCCCCCCCCCCC3CCCC3)cc2)cc1` ?
RESULT: 0.994

QUERY: normalized growth for `Oc1ccc(Cl)c2cccnc12` ?
RESULT: 0.0784

QUERY: normalized growth for `OC[C@@H](O)[C@@H](O[C@@H]1O[C@H](CO)[C@@H](O)[C@H](O)[C@H]1O)[C@H](O)[C@@H](O)CO` ?
RESULT: 1.02

QUERY: normalized growth for `O=C(O[C@@H]1Cc2c(O)cc(O)cc2O[C@@H]1c1cc(O)c(O)c(O)c1-c1c([C@H]2Oc3cc(O)cc(O)c3C[C@H]2O)cc(O)c(O)c1O)c1cc(O)c(O)c(O)c1` ?
RESULT: 0.645

QUERY: normalized growth for `C[n+]1cccc(C(=O)[O-])c1` ?
RESULT: 1

QUERY: normalized growth for C=CC(C)(O)CC/C=C(\C)CCC=C(C)C (stereo unspecified) ?
RESULT: 1.01

QUERY: normalized growth for `Cc1ccc(/C(=C\CN2CCCC2)c2ccccn2)cc1` ?
RESULT: 1

QUERY: normalized growth for NC(=NCCC[C@H](N)C(=O)O)NC(CCC(=O)O)C(=O)O (stereo partly specified) ?
RESULT: 1.05

QUERY: normalized growth for CC1(C)C(O)CC(O)C2(C)C1CC(=O)C1(C)C2CCC2(C)C(C(=O)O)OC(=O)C3OC321 (stereo unspecified) ?
RESULT: 0.997

QUERY: normalized growth for `C=C[C@](C)(O)CCC=C(C)C` ?
RESULT: 1.01

QUERY: normalized growth for O=C1O[C@H](C(O)CO)C(O)=C1O (stereo partly specified) ?
RESULT: 0.96

QUERY: normalized growth for `COc1cc(OC)c2c(=O)c(-c3ccccc3)c(C)oc2c1OC` ?
RESULT: 0.993

QUERY: normalized growth for `C/C=C/c1ccc2c(c1)OCO2` ?
RESULT: 0.999

QUERY: normalized growth for `CC(C)(C)NC[C@@H](O)COc1nsnc1N1CCOCC1` ?
RESULT: 0.988

QUERY: normalized growth for `c1ccc2c(c1)cc1ccc3cccc4ccc2c1c34` ?
RESULT: 0.99

QUERY: normalized growth for CC1(C)C(=O)C=C[C@@]2(C)C1=C(O)C(=O)[C@]1(C)C2CC[C@@]2(C)[C@H](c3ccoc3)C[C@H]3O[C@]321 (stereo partly specified) ?
RESULT: 0.891

QUERY: normalized growth for CC(Cc1ccc(O)c(O)c1)C(C)Cc1ccc(O)c(O)c1 (stereo unspecified) ?
RESULT: 1.01

QUERY: normalized growth for `O=[N+]([O-])c1cc([As](=O)(O)O)ccc1O` ?
RESULT: 0.147

QUERY: normalized growth for C1CCN2CC3CC(CN4CCCCC34)C2C1 (stereo unspecified) ?
RESULT: 0.961

QUERY: normalized growth for CC1(C)C(C(Cl)Cl)C2(Cl)C(Cl)C(Cl)C1(Cl)C2(Cl)Cl (stereo unspecified) ?
RESULT: 0.978

QUERY: normalized growth for `c1ccc2c3c([nH]c2c1)CNCC3` ?
RESULT: 1.02

QUERY: normalized growth for `Nc1ncn([C@@H]2O[C@H](CO)[C@@H](O)[C@H]2O)c(=O)n1` ?
RESULT: 1

QUERY: normalized growth for `O=C(O)CF` ?
RESULT: 0.978

QUERY: normalized growth for `NCCNC(=O)c1ccc(Cl)cc1` ?
RESULT: 0.993

QUERY: normalized growth for `C[C@H](N)[C@H](O)c1ccc(O)c(O)c1` ?
RESULT: 0.991

QUERY: normalized growth for `COC(=O)Oc1ccccc1C(=O)O` ?
RESULT: 1.02

QUERY: normalized growth for CC(=O)O[C@H]1C[C@@H](OC(C)=O)C(C)(C)C2C[C@@H](OC(C)=O)[C@@]3(C)C4=CC(=O)O[C@@H](c5ccoc5)[C@]4(C)CCC3[C@]21C (stereo partly specified) ?
RESULT: 0.991

QUERY: normalized growth for `O=[N+]([O-])c1ccc(O)c([N+](=O)[O-])c1` ?
RESULT: 0.845

QUERY: normalized growth for O=C1CCCC2C3CC(CN12)[C@@H]1CCCCN1C3 (stereo partly specified) ?
RESULT: 0.985

QUERY: normalized growth for `CCCc1occc(=O)c1/C=C/O` ?
RESULT: 0.985

QUERY: normalized growth for `N[C@@H](Cc1ccc(O)c(O)c1)C(=O)O` ?
RESULT: 1

QUERY: normalized growth for `O=[N+]([O-])c1cc(O)c(O)c([N+](=O)[O-])c1` ?
RESULT: 0.981

QUERY: normalized growth for NCC(CC(=O)O)c1ccc(Cl)s1 (stereo unspecified) ?
RESULT: 0.981

QUERY: normalized growth for `Oc1c(Cl)cc(Cl)c2cccnc12` ?
RESULT: 0.0779

Values from PubChem BioAssay AID1159580
